# Target Entity: Histamine H3 receptor (Homo sapiens)
# Sequence (Q9Y5N1 whole entry): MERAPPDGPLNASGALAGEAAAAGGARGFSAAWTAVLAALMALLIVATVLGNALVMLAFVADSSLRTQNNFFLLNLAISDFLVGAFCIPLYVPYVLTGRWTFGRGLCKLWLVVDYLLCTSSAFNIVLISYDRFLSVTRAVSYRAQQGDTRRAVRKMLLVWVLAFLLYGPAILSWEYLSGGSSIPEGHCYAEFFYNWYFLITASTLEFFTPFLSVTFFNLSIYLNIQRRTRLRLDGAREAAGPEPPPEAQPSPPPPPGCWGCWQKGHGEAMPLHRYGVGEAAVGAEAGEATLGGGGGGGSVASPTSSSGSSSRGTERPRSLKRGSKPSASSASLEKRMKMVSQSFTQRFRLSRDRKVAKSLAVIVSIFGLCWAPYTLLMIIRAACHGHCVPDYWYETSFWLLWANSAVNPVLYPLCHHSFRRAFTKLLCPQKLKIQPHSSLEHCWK
# Measurement Description: Antagonist activity at human Histamine H3 receptor
Reported Property: pKi
Please express pKi as -log10 of the molar concentration.

# input Query for Histamine H3 receptor (Homo sapiens): what pKi does the record show for NC(=O)c1ccc([C@@H]2C[C@H]2C(=O)N2CCN(C3CCC3)CC2)cc1 ?
# output 9.30

---

Quick note: these are pKi numbers for system: Histamine H3 receptor (Rattus norvegicus, UniProt Q9QYN8)
Sequence (Q9QYN8 whole entry): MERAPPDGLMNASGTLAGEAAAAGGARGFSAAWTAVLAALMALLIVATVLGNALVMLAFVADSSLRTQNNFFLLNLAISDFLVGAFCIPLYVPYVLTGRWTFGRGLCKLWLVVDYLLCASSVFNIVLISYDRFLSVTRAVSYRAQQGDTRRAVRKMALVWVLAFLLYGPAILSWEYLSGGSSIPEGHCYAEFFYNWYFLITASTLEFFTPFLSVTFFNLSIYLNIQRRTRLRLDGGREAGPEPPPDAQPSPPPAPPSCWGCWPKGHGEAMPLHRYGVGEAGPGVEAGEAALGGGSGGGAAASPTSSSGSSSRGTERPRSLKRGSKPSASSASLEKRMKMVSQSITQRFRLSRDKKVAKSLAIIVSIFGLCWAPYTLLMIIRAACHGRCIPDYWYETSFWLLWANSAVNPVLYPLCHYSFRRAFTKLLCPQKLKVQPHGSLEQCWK
The meaning of pKi here: minus log10 of the concentration in molar units.

>>> val("CC(=O)N[C@]12CCC(=O)N[C@@]1(C)CC[C@@H]1c3ccc(OCCCN4CCC[C@H]4C)cc3CC[C@H]12")
7.84
>>> val("C[C@@H]1CC(=O)N(C)[C@@]2(C)CC[C@@H]3c4ccc(OCCCN5CCC[C@H]5C)cc4CC[C@H]3[C@H]12")
8.66
>>> val("CC(=O)N1CCC[C@H]2[C@@H]3CCc4cc(OCCCN5CCC[C@H]5C)ccc4[C@H]3CC[C@@]21C")
7.80

As a next step, examine the compound that follows.
# input Item under review: CCC(=O)N1CCC[C@H]2[C@@H]3CCc4cc(OCCCN5CCC[C@H]5C)ccc4[C@H]3CC[C@@]21C . Reported pKi?
# output 7.43

meta.source: ChEMBL document CHEMBL5528071
